- PROCEDURE DETAILS: qHTS assay to identify small molecule agonists of the endoplasmic reticulum stress response signaling pathway (AID 1159516); note: % is set by controls: 0 for no effect and ±100 for the full control effect
- TEST CONTEXT: ESRE-bla HeLa, ER stress beta-lactamase reporter, 5 h; series mostly up to 61 µM
Records with an inconclusive call do not appear. The source made the active and inactive calls. Calls come from the whole dose curve; as a rule, active = well fitted activation curve with a large enough effect in the signal ratio in the repeat runs (not every such curve was filed as active); inconclusive = weak or mixed curves, or effect the other way; inactive = flat fitted curve, though single readings scatter; the % refers to the signal ratio.
PROPERTY MEASURED: activation

COMPOUND	activation
N[C@H](C(=O)O)[C@@H](O)c1ccc(O)c(O)c1	inactive
C[C@H]1C[C@H]2[C@@H]3CCC4=CC(=O)C=C[C@]4(C)[C@H]3C(=O)C[C@]2(C)[C@@]1(O)C(=O)CO	inactive
O=S(=O)(O)c1cccc2ccccc12	inactive
NC(N)=NCCN1CCCCCCC1	2.69% [at 0.628 µM] (inactive)

Below are 5 compounds. Give each one its activation.
1. CC(C#N)(CCC(=O)O)N=NC(C)(C#N)CCC(=O)O (stereo not drawn)
2. CCCCN1C=CN(C)C1
3. CN(C)CCN(C)CCN(C)C
4. CCCc1ncc(C[n+]2ccccc2C)c(N)n1
5. O=C(c1ccccc1)C1(O)CCCCC1

["inactive", "inactive", "inactive", "inactive", "inactive"]

* * *

- PROCEDURE DETAILS: qHTS assay for small molecule agonists of the antioxidant response element (ARE) signaling pathway (AID 743202); note: % is set by controls: 0 for no effect and ±100 for the full control effect
- TEST CONTEXT: HepG2 ARE-bla reporter, beta-lactamase FRET, 16 h; series mostly up to 73.3 µM
Results filed as inconclusive are left out. Activity calls are given as the source filed them. Calls come from the whole dose curve; as a rule, active = well fitted activation curve with a large enough effect in the signal ratio in the repeat runs (not every such curve was filed as active); inconclusive = weak or mixed curves, or effect the other way; inactive = no such curve, though single readings can be large or run the other way; the % refers to the signal ratio.
PROPERTY MEASURED: activation

MOLECULE	activation
C=CN1CCCCCC1=O	inactive
CC(COc1ccccc1)NN (stereo not given)	inactive
O=C(O)c1cc(C(=O)O)cc(C(=O)O)c1	inactive
C[N+]1(CC2COC(c3ccccc3)(c3ccccc3)O2)CCCCC1 (stereo not given)	inactive
Cc1ccc(-c2ccccc2C#N)cc1	inactive
CC1=CC(=O)[C@H]2C[C@@H]1C2(C)C	inactive

I would be grateful if you could provide activation for each of the following entries.
1. CN(C)[C@@H]1C(=O)C(C(=O)NCN2CCCC2)=C(O)[C@@]2(O)C(=O)C3=C(O)c4c(O)cccc4[C@@](C)(O)C3C[C@@H]12 (stereo not given in full)
2. NS(=O)(=O)Cc1noc2ccccc12
3. CCN(CC#N)c1cccc(C)c1
4. Clc1cc(Cl)c(Cl)nc1Cl
5. c1ccc2sc(SN3CCOCC3)nc2c1

1. inactive
2. inactive
3. inactive
4. inactive
5. inactive

Look up activation for the entries below, preserving their order.
1. CC[N+](CC)(CC)CCOc1cccc(OCC[N+](CC)(CC)CC)c1OCC[N+](CC)(CC)CC
2. CC(C)COC(=O)c1ccc(N)cc1

["inactive", "inactive"]

// each molecule listed below needs its activation
1. Cc1ccc(C(=O)c2ccccc2)cc1
2. O=C(O)CCSCCC(=O)O
3. O=C(CO)[C@@H](O)[C@H](O)[C@@H](O)CO

inactive
inactive
inactive

Hi team, please reply with activation for each item in this list.
1. CCOC(=O)OC(C)OC1=C(C(=O)Nc2ccccn2)N(C)S(=O)(=O)c2ccccc21 (stereo not given)
2. CC1CCC(CO)CC1 (stereo not given)
3. CC(=O)c1ccccc1[N+](=O)[O-]

1. inactive
2. inactive
3. inactive
